EXPERIMENTAL_SYSTEM: α-amylase
PROTOCOL: α-Amylase inhibitory activity
CONDITIONS_USED: Means ×10^2 ± SD from at least three experiments
Lab note - cut at 700 µM for IC50: rule met if strictly below, rule not met if not.

compound="O=S(=O)(O)c1cc(O)c(N=Cc2ccccc2)c2ccccc12 [Compound 9]" classification="rule met"
compound="O=[N+]([O-])c1ccc(C=Nc2c(O)cc(S(=O)(=O)O)c3ccccc23)cc1 [Compound 7]" classification="rule not met"
compound="O=S(=O)(O)c1cc(O)c(N=Cc2ccccc2O)c2ccccc12 [Compound 8]" classification="rule met"
compound="O=[N+]([O-])c1ccc(C=Nc2cc(O)[nH]n2)cc1 [Compound 1]" classification="rule met"
compound="O=[N+]([O-])c1ccc(C=Nc2ccc(O)cc2)cc1 [Compound 4]" classification="rule not met"
compound="Oc1cc(N=Cc2ccccc2)n[nH]1 [Compound 3]" classification="rule met"
compound="Oc1ccc(N=Cc2ccccc2)cc1 [Compound 6, 4-(benzylideneamino)phenol]" classification="rule not met"
compound="Oc1cc(N=Cc2ccccc2O)n[nH]1 [Compound 2]" classification="rule met"

Value source: paper PMC6162693
